B1: LCOR (parent)
chain: YKVKERLGTLKNPPKKKMKLMSG

- Variants of: B1
- assay-protocol: protein stability index of a GFP-peptide fusion (GPS, HEK-293T) (PSI 1-6); higher = more stable;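 note: lentivirally expressed fusions sorted by FACS into six bins by GFP to DsRed ratio, PSI derived from sequencing read proportions per bin multiplied by bin number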
- test-conditions: c terminus: native
quantity-measured: protein stability index
Answers are plain numbers.

Examples with their reported protein stability index follow.
[[record]]
mutant_designation = "L10N"
observed_result = 2.85

[[record]]
mutant_designation = "P14Y"
observed_result = 3.03

[[record]]
mutant_designation = "K4R"
observed_result = 3.6

[[record]]
mutant_designation = "G23I"
observed_result = 2.4

[[record]]
mutant_designation = "L7K"
observed_result = 1.98

[[record]]
mutant_designation = "G23W"
observed_result = 2.19

[[record]]
mutant_designation = "P14N"
observed_result = 1.49

[[record]]
mutant_designation = "L20C"
observed_result = 1.8


Look at each variant and report its protein stability index.
1. K4Y
2. S22E
3. N12E
4. G8M
5. G23P
6. S22P

Outgoing:
2.3
2.58
1.61
1.69
3.18
2.45

Look at each variant and report its protein stability index.
1. K19N
2. G23V
3. R6G
4. N12C
5. N12H
6. K11N

Outgoing:
[2.96, 2.11, 2.21, 3.3, 2.7, 2.29]

The origin of these recorded values is the supplement of paper PMC10567573.
